Answer each item with its documented growth.
Tested on: SF-539 CNS
ASSAY COMMENT: NCI-60 one-dose screen, 48 h (100 = growth as untreated, 0 = no growth, -100 = all killed)
CONDITION LABEL: 10 µM unless noted
This is part of a sample that, as a whole, favours compounds with a hit. Of some 83,000 tested, about 20% had one in any assay.
Give just the number in %; leave the unit off.

growth recorded for this compound, CCNC(=O)C#Cc1ccc2c(C(=Nc3ccc(CN(C)C)cc3)c3ccccc3)c(O)[nH]c2c1 , is -6.1

growth recorded for this compound, CO[C@H]1C[C@@H]2CC[C@@H](C)[C@@](O)(O2)C(=O)C(=O)N2CCCC[C@H]2C(=O)O[C@H]([C@H](C)C[C@@H]2CC[C@@H](OC(=O)C(C)(CO)CO)[C@H](OC)C2)CC(=O)[C@H](C)/C=C(\C)[C@@H](O)[C@@H](OC)C(=O)[C@H](C)C[C@H](C)\C=C/C=C/C=C/1C , is 4.68

growth recorded for this compound, CS(=O)(=O)N1CCN(Cc2cc3nc(-c4cccc5[nH]ncc45)nc(N4CCOCC4)c3s2)CC1 , is -2.44

growth recorded for this compound, CCCCn1c(C)nc2ccc(Nc3nc(N4CCN(C)CC4)nc4nc[nH]c34)cc21 , is 87.6

growth recorded for this compound, COc1cc(Nc2ncc(F)c(Nc3ccc4c(n3)N(COP(=O)(O)O)C(=O)C(C)(C)O4)n2)cc(OC)c1OC , is -70.1

growth recorded for this compound, Cc1nn(-c2ccccc2)c2c1N=c1s/c(=C\c3cn(-c4ccccc4)nc3-c3ccc(Cl)cc3)c(=O)n1C(C)N2 (configuration not stated) , is 85.6

growth recorded for this compound, O=C1CC(c2cccc(F)c2)c2c(n[nH]c2-c2ccc(Cl)cc2)N1 (configuration not stated) , is 91.3

###

Test system: T-47D breast
ASSAY COMMENT: NCI-60 one-dose screen, 48 h
CONDITION LABEL: 10 µM unless noted
This is part of a sample that, as a whole, favours compounds with a hit. Of some 83,000 tested, about 20% had one in any assay. Calls of active or inactive are those of the source. How the source made its calls: active means growth percent below 10; inactive means the rest.
I would appreciate it if you answered using one of these outcomes: active, inactive

Fill in: this test's call for NC1=Nc2ccccc2N(O)N1 is ___
inactive

Fill in: this test's call for O=C(c1c(F)ccc(NS(=O)(=O)N2CC[C@@H](F)C2)c1F)c1c[nH]c2ncc(-c3cnc(C4CC4)nc3)cc12 is ___
active

Fill in: this test's call for O=C(c1ccccc1)C(c1ccccc1)N1CCOCC1 (configuration not stated) is ___
inactive

Fill in: this test's call for O=C(NOCCO)c1cc(CN2OCCCC2=O)c(F)c(F)c1Nc1ccc(I)cc1F is ___
inactive

Fill in: this test's call for Cc1cc(N2CCCC2)nc(N(CCCNc2ccnc3cc(Cl)ccc23)Cc2ccc3c(c2)OCO3)n1 is ___
active

Fill in: this test's call for COC(=O)CC[C@@H](C)[C@H]1CC[C@H]2C3CC[C@@H]4C[C@@H]5CC[C@]4(C)[C@@]3(O5)[C@H](Br)[C@@H](Br)[C@]12C (some centres not stated) is ___
inactive

Fill in: this test's call for O=C(Cc1ccc(/C=C/C(=O)c2ncc[nH]2)cc1)Nc1ccc(S(F)(F)(F)(F)F)cc1 is ___
inactive

Fill in: this test's call for C=CC(=O)Nc1cc2c(Nc3ccc(F)c(Cl)c3)ncnc2cc1C#CC(C)(C)N1CCN(C)CC1 is ___
active

Fill in: this test's call for C[C@@H]1COC(Nc2ccc3ncnc(Nc4ccc(OCc5nccs5)c(Cl)c4)c3c2)=N1 is ___
active

Fill in: this test's call for COC(=O)c1ccc2c(C(=Nc3ccc(N(C)C(=O)CN4CCN(C)CC4)cc3)c3ccccc3)c(O)[nH]c2c1 is ___
inactive

Fill in: this test's call for CCN1CCN(Cc2ccc(-c3cc4c(N[C@H](C)c5ccccc5)ncnc4[nH]3)cc2)CC1 is ___
inactive

Fill in: this test's call for COc1cnc2c(c1)C(=O)c1c-2n(CCCN2CCC(O)CC2)c(=O)c2cc(Cl)ccc12 is ___
inactive

Fill in: this test's call for O=C(Nc1ccc(-c2ccnc(Nc3ccc(N4CCOCC4)cc3)n2)cc1)[C@@H]1CCCN1 is ___
inactive

Fill in: this test's call for CCCC(=O)OCC1OC(n2cnc3c(=S)nc(N)[nH]c32)C(OC(=O)CCC)C1OC(=O)CCC (configuration not stated) is ___
inactive

Fill in: this test's call for CC(C)n1c(NCCc2ccc(O)c(O)c2)nc2c1c(=O)n(C)c(=O)n2C is ___
inactive

Fill in: this test's call for Clc1ccc(C(Cn2ccnc2)OCc2ccsc2Cl)c(Cl)c1 (configuration not stated) is ___
inactive

Fill in: this test's call for Cn1cnc(-c2cc3nccc(Oc4ccc(NC(=S)NC(=O)Cc5ccccc5)cc4F)c3s2)c1 is ___
inactive

Fill in: this test's call for Cc1cc(N2CCOCC2)nc(N(CCNc2ccnc3cc(Cl)ccc23)Cc2cccs2)n1 is ___
active

Fill in: this test's call for COc1ccc(OC)c(NC2=C(SCCc3ccccc3)C(=O)c3ccccc3C2=O)c1 is ___
inactive

Fill in: this test's call for Cc1cc(N(CCNc2ccnc3cc(Cl)ccc23)Cc2ccc3c(c2)OCO3)nc(N2CCCC2)n1 is ___
active

Fill in: this test's call for FC(F)c1nc2ccccc2n1-c1nc(N2CCOCC2)nc(N2CCOCC2)n1 is ___
active

Fill in: this test's call for CC(C)CC(=O)Nc1n[nH]c2c1CN(C(=O)C1CCN(C)CC1)C2(C)C is ___
active

Fill in: this test's call for N#Cc1ccc(-n2nnc3ccccc32)cc1C#N is ___
inactive

Fill in: this test's call for COc1ccc(/C(C)=C(\c2ccc(Cl)cc2)c2ccc(OCCN3CCCCCC3)cc2)cc1 is ___
inactive

Fill in: this test's call for c1cc(OCCN2CCCCC2)cc(-c2n[nH]c3ccc(-c4ncn[nH]4)cc23)c1 is ___
inactive

Fill in: this test's call for Cc1cccc(C)c1N1C(c2ccccc2)=NNC12C=CC(=O)c1c(O)cccc12 (configuration not stated) is ___
inactive

Fill in: this test's call for COc1ccc(Br)cc1NC(=O)Nc1cccc2c1ccn2Cc1ccnc(N)c1 is ___
active

Fill in: this test's call for CC(C)=CCc1cc2c(cc1O)C1=C(C(=O)C3=C(NCCS3(=O)=O)C1=O)C(C=C(C)C)O2 (configuration not stated) is ___
inactive

Fill in: this test's call for O=c1[nH]ccc2c(S(=O)(=O)N3CCCNCC3)cccc12 is ___
inactive

Fill in: this test's call for N#CC1(C#N)C(c2cccs2)NC(c2cccs2)C1(C#N)C#N (configuration not stated) is ___
inactive

Fill in: this test's call for CO[C@@H](C(=O)N1Cc2[nH]nc(NC(=O)c3ccc(N4CCN(C)CC4)cc3)c2C1)c1ccccc1 is ___
active

Fill in: this test's call for CCc1nc2cc(/C=C/C(=O)NO)ccc2c(=O)n1CCc1ccc(F)cc1 is ___
active

Fill in: this test's call for CCCCCCCC(=O)SCC/C=C/[C@@H]1CC(=O)NCc2cc(ccn2)C2=N[C@@](C)(CS2)C(=O)N[C@@H](C(C)C)C(=O)O1 is ___
active

Fill in: this test's call for O=C(Nc1ccc(C2=NCCCN2)cc1)c1ccc(C(=O)Nc2ccc(C3=NCCCN3)cc2)nc1 is ___
inactive

Fill in: this test's call for COc1ccc(F)c(F)c1C(=O)c1cnc(NC2CCN(S(C)(=O)=O)CC2)nc1N is ___
active

Fill in: this test's call for Cc1ccc(-c2cc3c(SCC(=O)Nc4cc(C(F)(F)F)ccc4Cl)nccn3n2)cc1 is ___
inactive

Fill in: this test's call for COC(=O)CCCNc1c(-c2c(O)c(O)cc3c(O)c(-c4c(C)cc5c(-c6nc7ccccn7c6NCCCC(=O)OC)c(O)c(O)cc5c4O)c(C)cc23)nc2ccccn12 is ___
inactive
